Where do the numbers come from? From the Immune Epitope Database (IEDB).

System Tested: HLA-A*02:12
Assay Name: IEDB peptide-MHC binding, purified MHC/direct/fluorescence; filed as Kd, often an IC50 or EC50 that approximates it; bounds were set here for any values at or beyond the usual limits of such assays
Condition Description: source organism: Orthohantavirus andesense
Readout Kind: Kd

Noted Kd for "AYDHGNVIL" , tested on HLA-A*02:12: ≥ 20 µM

---

System Tested: HLA-A*24:03
Assay Name: IEDB peptide-MHC binding, purified MHC/direct/fluorescence; filed as Kd, often an IC50 or EC50 that approximates it; bounds were set here for any values at or beyond the usual limits of such assays
Condition Description: source organism: Haemophilus influenzae
Readout Kind: pKd
// pKd: -log10(molar conc.)

// recorded pKd for "YATVAGHEG" : 6.05
